# protocol-notes: Cytotoxicity against human HL60 cells assessed as growth inhibition after 24 hrs by resazurin dye based assay
# Format: cell-based, HL-60
Hi there, I'd appreciate the recorded GI50 at 24 h for every entry that follows.
I only need the number, in µM, no unit after it.

So for `CC[C@@H](C(=O)[C@@H](C)[C@@H](O)[C@H](C)[C@@H]1O[C@@H]([C@@H](CC)C(=O)NCCc2ccc(F)cc2)CC[C@@H]1C)[C@H]1O[C@]2(C=C[C@@H](O)[C@]3(CC[C@@](C)([C@H]4CC[C@](O)(CC)[C@H](C)O4)O3)O2)[C@H](C)C[C@@H]1C` , the logged GI50 at 24 h turned out to be 11.6

So for `CC[C@@H](C(=O)[C@@H](C)[C@@H](O)[C@H](C)[C@@H]1O[C@@H]([C@@H](CC)C(=O)ONC(=O)c2ccccc2O)CC[C@@H]1C)[C@H]1O[C@]2(C=CC(=O)[C@]3(CC[C@@](C)([C@H]4CC[C@](O)(CC)[C@H](C)O4)O3)O2)[C@H](C)C[C@@H]1C` , the logged GI50 at 24 h turned out to be 1.93

Where do the numbers come from? From ChEMBL document CHEMBL4346706.
